tested on: 782815-120-R-J1-PDC complex spheroid viability; assay: Anticancer human tumor 782815-120-R-J1-PDC patient-derived colon adenocarcinoma cell line growth inhibition [RAS]; details: second compound 0.0316 µM; first compound 0.0316 µM; active compounds read low
MEASUREMENT NAME: viability, T/C (%)
One number for each entry, in %.

Solved cases (2 shown):
C[C@@H](NC(=O)c1ncnc(N)c1Cl)c1ncc(C(=O)Nc2cc(C(F)(F)F)c(Cl)cn2)s1 + C=CC(=O)N1CCN(c2nc(OCC3CCCN3C)nc3c(F)c(-c4nc(N)cc(C)c4C(F)(F)F)c(Cl)cc23)C(C)C1    116
CCN1CCN(Cc2ccc(Nc3ncc(F)c(-c4cc(F)c5nc(C)n(C(C)C)c5c4)n3)nc2)CC1 + C#Cc1c(F)ccc2cc(O)cc(-c3ncc4c(N5CC6CCC(C5)N6)nc(OCC56CCCN5CC(F)C6)nc4c3F)c12    112

// next item, viability, T/C requested
Exam item: Lab note: need viability, T/C with 782815-120-R-J1-PDC complex spheroid viability for entry C[C@@H](NC(=O)c1ncnc(N)c1Cl)c1ncc(C(=O)Nc2cc(C(F)(F)F)c(Cl)cn2)s1 + C#Cc1c(F)ccc2cc(O)cc(-c3ncc4c(N5CC6CCC(C5)N6)nc(OCC56CCCN5CC(F)C6)nc4c3F)c12 , please look it up.
Marked response: 105

====

tested on: 782815-120-R-J1-PDC complex spheroid viability; assay: Anticancer human tumor 782815-120-R-J1-PDC cell line growth inhibition [RAS]; settings: second compound 0.00316 µM; first compound 1 µM; active compounds read low;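 also: spheroids exposed to compounds for 7 days before reading; 100% = DMSO vehicle control viability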
I'd be grateful if you could share measured viability, T/C for these entries.
Answers are plain numbers, in %.

CC(Nc1ccc2c(c1)OCCn1cc(N3C(=O)OCC3C(F)F)nc1-2)C(N)=O (configuration not stated) + C=CC(=O)N1CCN(c2nc(OCC3CCCN3C)nc3c(F)c(-c4nc(N)cc(C)c4C(F)(F)F)c(Cl)cc23)C(C)C1    79.1
CCN1CCN(Cc2ccc(Nc3ncc(F)c(-c4cc(F)c5nc(C)n(C(C)C)c5c4)n3)nc2)CC1 + C=CC(=O)N1CCN(c2nc(OCC3CCCN3C)nc3c(F)c(-c4nc(N)cc(C)c4C(F)(F)F)c(Cl)cc23)C(C)C1    128
CC(C)NCC(C(=O)N1CCN(c2ncnc3c2C(C)CC3O)CC1)c1ccc(Cl)cc1 (configuration not stated) + C=CC(=O)N1CCN(c2nc(OCC3CCCN3C)nc3c(F)c(-c4nc(N)cc(C)c4C(F)(F)F)c(Cl)cc23)C(C)C1    92
Cc1nc(N2CCC3(CC2)COC(C)C3N)c(CO)nc1Sc1ccnc(N)c1Cl (configuration not stated) + C=CC(=O)N1CCN(c2nc(OCC3CCCN3C)nc3c(F)c(-c4nc(N)cc(C)c4C(F)(F)F)c(Cl)cc23)C(C)C1    96
CC1(O)CCCC1n1c(=O)c(C(F)F)cc2cnc(NC3CCN(S(C)(=O)=O)CC3)nc21 (configuration not stated) + C=CC(=O)N1CCN(c2nc(OCC3CCCN3C)nc3c(F)c(-c4nc(N)cc(C)c4C(F)(F)F)c(Cl)cc23)C(C)C1    57.6
O=C(c1ccc(F)c(F)c1Nc1ccc(I)cc1F)N1CC(O)([C@@H]2CCCCN2)C1 + C=CC(=O)N1CCN(c2nc(OCC3CCCN3C)nc3c(F)c(-c4nc(N)cc(C)c4C(F)(F)F)c(Cl)cc23)C(C)C1    3.64

Give viability, T/C for each of the items listed below.
1. Nc1ccn(C2OC(CO)C(O)C2(F)F)c(=O)n1 (configuration not stated) + C=CC(=O)N1CCN(c2nc(OCC3CCCN3C)nc3c(F)c(-c4nc(N)cc(C)c4C(F)(F)F)c(Cl)cc23)C(C)C1
2. C=CC(=O)Nc1cc(Nc2nccc(-c3cn(C)c4ccccc34)n2)c(OC)cc1N(C)CCN(C)C + C=CC(=O)N1CCN(c2nc(OCC3CCCN3C)nc3c(F)c(-c4nc(N)cc(C)c4C(F)(F)F)c(Cl)cc23)C(C)C1
3. CCC(CC)c1cc(NC2CCC(N)C2)n2nccc2n1 (configuration not stated) + C=CC(=O)N1CCN(c2nc(OCC3CCCN3C)nc3c(F)c(-c4nc(N)cc(C)c4C(F)(F)F)c(Cl)cc23)C(C)C1
4. NC1c2ccccc2OC12CCN(c1cnc3c(N4CCCc5ncccc54)n[nH]c3n1)CC2 (configuration not stated) + C=CC(=O)N1CCN(c2nc(OCC3CCCN3C)nc3c(F)c(-c4nc(N)cc(C)c4C(F)(F)F)c(Cl)cc23)C(C)C1
5. C[C@@H](NC(=O)c1ncnc(N)c1Cl)c1ncc(C(=O)Nc2cc(C(F)(F)F)c(Cl)cn2)s1 + C=CC(=O)N1CCN(c2nc(OCC3CCCN3C)nc3c(F)c(-c4nc(N)cc(C)c4C(F)(F)F)c(Cl)cc23)C(C)C1
6. CC(=O)OC12COC1CC(O)C1(C)C(=O)C(O)C3=C(C)C(OC(=O)C(O)C(NC(=O)OC(C)(C)C)c4ccccc4)CC(O)(C(OC(=O)c4ccccc4)C21)C3(C)C (configuration not stated) + C=CC(=O)N1CCN(c2nc(OCC3CCCN3C)nc3c(F)c(-c4nc(N)cc(C)c4C(F)(F)F)c(Cl)cc23)C(C)C1

Marked response:
19.1
99.8
98.3
93.8
86
23.6

====

tested on: 782815-120-R-J1-PDC complex spheroid viability; experiment: Anticancer human tumor 782815-120-R-J1-PDC cell line growth inhibition [RAS]; settings: second compound 0.0316 µM; first compound 0.000949 µM; active compounds read low;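 also: spheroids exposed to compounds for 7 days before reading; 100% = DMSO vehicle control viability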
MEASUREMENT NAME: viability, T/C (%)
Answers are plain numbers, in %.

CC1(C)CCC(Nc2ncc(C(F)(F)F)c(-c3c[nH]c4c(P(C)(C)=O)c(C#N)ccc34)n2)CN1 (centres undefined) + C=CC(=O)N1CCN(c2nc(OCC3CCCN3C)nc3c(F)c(-c4nc(N)cc(C)c4C(F)(F)F)c(Cl)cc23)C(C)C1    107
CC1(C)CCC(Nc2ncc(C(F)(F)F)c(-c3c[nH]c4c(P(C)(C)=O)c(C#N)ccc34)n2)CN1 (centres undefined) + C#Cc1c(F)ccc2cc(O)cc(-c3ncc4c(N5CC6CCC(C5)N6)nc(OCC56CCCN5CC(F)C6)nc4c3F)c12    98.2
CCc1c2c(nc3ccc(O)cc13)-c1cc3c(c(=O)n1C2)COC(=O)[C@]3(O)CC + C#Cc1c(F)ccc2cc(O)cc(-c3ncc4c(N5CC6CCC(C5)N6)nc(OCC56CCCN5CC(F)C6)nc4c3F)c12    94.9

Exam item: Consider the molecule shown here: CCc1c2c(nc3ccc(O)cc13)-c1cc3c(c(=O)n1C2)COC(=O)[C@]3(O)CC + C=CC(=O)N1CCN(c2nc(OCC3CCCN3C)nc3c(F)c(-c4nc(N)cc(C)c4C(F)(F)F)c(Cl)cc23)C(C)C1 What is its recorded viability, T/C?
Marked response: 99.2

====

tested on: 782815-120-R-J1-PDC complex spheroid viability; assay: Anticancer human tumor 782815-120-R-J1-PDC cell line growth inhibition [RAS]; conditions: second compound 0.3 µM; first compound 0.3 µM; active compounds read low;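 also: spheroids exposed to compounds for 7 days before reading; 100% = DMSO vehicle control viability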
MEASUREMENT NAME: viability, T/C (%)
Numbers only, in %.

Solved cases (3 shown):
CC1(C)CCC(Nc2ncc(C(F)(F)F)c(-c3c[nH]c4c(P(C)(C)=O)c(C#N)ccc34)n2)CN1 (centres undefined) + CCn1c(-c2cccnc2C(C)OC)c2c3cc(ccc31)N1CCOC(CC(NC(=O)C(C(C)C)N(C)C(=O)C3(F)CCN(C(=O)C#CC(C)(C)N(C)C)CC3)C(=O)N3CCCC(N3)C(=O)OCC(C)(C)C2)C1    36.3
CCc1c2c(nc3ccc(O)cc13)-c1cc3c(c(=O)n1C2)COC(=O)[C@]3(O)CC + CCn1c(-c2cccnc2C(C)OC)c2c3cc(ccc31)N1CCOC(CC(NC(=O)C(C(C)C)N(C)C(=O)C3(F)CCN(C(=O)C#CC(C)(C)N(C)C)CC3)C(=O)N3CCCC(N3)C(=O)OCC(C)(C)C2)C1    1.16
CCc1c2c(nc3ccc(O)cc13)-c1cc3c(c(=O)n1C2)COC(=O)[C@]3(O)CC + CCn1c(-c2cc(N3CCN(C)CC3)cnc2C(C)OC)c2c3cc(ccc31)-c1csc(n1)CC(NC(=O)C1CC1C)C(=O)N1CCCC(N1)C(=O)OCC(C)(C)C2    1.5

// next item, viability, T/C requested
Exam item: Consider the compound shown here: CC1(C)CCC(Nc2ncc(C(F)(F)F)c(-c3c[nH]c4c(P(C)(C)=O)c(C#N)ccc34)n2)CN1 (centres undefined) + CCn1c(-c2cc(N3CCN(C)CC3)cnc2C(C)OC)c2c3cc(ccc31)-c1csc(n1)CC(NC(=O)C1CC1C)C(=O)N1CCCC(N1)C(=O)OCC(C)(C)C2 What is its recorded viability, T/C?
Marked response: 7.08
